tgt: SARS-CoV-2 Lambda (C.37) RBD (SARS-CoV-2 Lambda (C.37), strain)

binder: YB12-197 (antibody, V domains shown) VH: EVQLVESGGGLVQPGGSLRLSCAASGFTVSSNYMNWVRQAPGKGLEWVSVIYSGGSTFYADSVKGRFTISRDNSKNTLYLQMNSLRAEDTAVYYCARDAYNYGANWGQGTLVTVSS VL: HLVLTQSPSASASLGASVKLTCTLSSGHSNNAIAWHQQQPEKGPRYLMHLNSDGSHTKGDGIPDRFSGSSSGAERYLTISSLQSEDEAEYYCQTWGTDIHWVFGGGTKLTVR
binding result: binds

These data points were gathered from paper PMC9951844.
